target: HLA-DRB1*0404 (human); test: radioligand binding; solid-state competitive-binding assay (as in Southwood et al, 1998): the peptide blocks the binding of a radio-labeled reference peptide to purified HLA-DR4 complexes; IC50 in nM; conditions: both partners purified
Consider the following binders; for each one, report its IC50.
Answers are plain numbers, in nM.

Sample answers from the record:
binder	measured-attribute	value
LCQPVLPSPACQLVLHQILKGG (gp100/pmel17 melanoma-associated antigen, residues 540-561; also called gp100540-561; g540; source: synthetic peptide (FMOC chemistry, UPCI Peptide Synthesis Facility), >90% pure) [gp100/pmel17 540-561]	IC50	614
KRCLLHLAVIGALLAVGATKV (gp100/pmel17 melanoma-associated antigen, residues 6-26; also called gp1006-26; g6; source: synthetic peptide (FMOC chemistry, UPCI Peptide Synthesis Facility), >90% pure) [gp100/pmel17 6-26]	IC50	335
EGDAFELTVSCQGGLPK (gp100/pmel17 melanoma-associated antigen, residues 506-522; also called gp100506-522; g506; source: synthetic peptide (FMOC chemistry, UPCI Peptide Synthesis Facility), >90% pure) [gp100/pmel17 506-522]	IC50	3550

Read the next record carefully.
Dear colleague, I am looking for the recorded IC50 of the following binder: VSGLSIGTGRAMLGTHTMEVTVY (gp100/pmel17 melanoma-associated antigen, residues 167-189; also called gp100167-179; g167; source: synthetic peptide (FMOC chemistry, UPCI Peptide Synthesis Facility), >90% pure) [gp100/pmel17 167-189]
372
